Tested on: rabbit skeletal myofibrils (approximately 90% fast fibers)
assay: Activation of fast skeletal myofibrils (PUMA coupled-enzyme ATPase assay at pCa25)
Assay type: biochemical
settings: concentration at which the compound increased the enzymatic activity by 40%; calcium at pCa25; PM12 buffer pH 6.8
From the text: Preparation of fast skeletal myofibrils. […] Activation of Fast Skeletal Myofibrils. […] This assay regenerates myosin-produced ADP into ATP by oxidizing NADH, producing an absorbance change at 340 nm. […]
observable: Mean AC1.4

Look over these answered cases.
INSERT INTO results (compound, result) VALUES
  ('CS(=O)(=O)NC(=O)c1cccc(-c2cnc(NCC3(c4ncccc4F)CC(F)C3)nc2)c1 (stereo not shown)', 'A (A=<1 uM)'),
  ('CC(C)(Nc1ncc(-c2ncc(CNC(=O)c3cnc(O)[nH]3)s2)cn1)c1ncccc1F', 'C (C=10-20 uM)'),
  ('CC(C)(Nc1ncc(-c2ncc(C(N)=O)s2)cn1)c1ncccc1F', 'D (D=>20 uM)'),
  ('CC(C)(Nc1ncc(-c2cnn(CCO)c2)cn1)c1ncccc1Cl', 'D (D=>20 uM)'),
  ('N#Cc1cnc(-c2cnc(NCC3(c4ncccc4F)CCC3)nc2)s1', 'C (C=10-20 uM)');

Give Mean AC1.4 for the following compound: CC(C)(Nc1ncc(-c2cn[nH]c2)cn1)c1ncccc1Cl
B (B=1-10 uM)

Give Mean AC1.4 for the following compound: CC(C)(Nc1ncc(-c2cc(CC(N)=O)ccc2F)cn1)c1ncccc1F
B (B=1-10 uM)

Give Mean AC1.4 for the following compound: CC(C)[C@@H](Nc1ncc(-c2ncc(C#N)s2)cn1)c1ncccc1Cl
D (D=>20 uM)

Give Mean AC1.4 for the following compound: NC(=O)c1cccc(-c2cnc(NCC3(c4ncccc4Cl)CCC3)nc2)c1
A (A=<1 uM)

Give Mean AC1.4 for the following compound: CC(C)(Nc1ncc(-c2cc(C(N)=O)on2)cn1)c1ncccc1Cl
C (C=10-20 uM)

---

System: rabbit skeletal myofibrils (approximately 90% fast fibers)
assay: Activation of fast skeletal myofibrils (PUMA coupled-enzyme ATPase assay at pCa25)
Assay type: biochemical
settings: concentration at which the compound increased the enzymatic activity by 40%; calcium at pCa25; PM12 buffer pH 6.8
observable: Mean AC1.4

Look over these answered cases.
INSERT INTO measurements (smiles_structure, result) VALUES
  ('Cn1nccc1NC(=O)c1cnc(NCC2(c3ncccc3F)CCC2)nc1', 'D (D=>20 uM)'),
  ('CC(C)(Nc1ncc(-c2cc(C(N)=O)ccn2)cn1)c1ncccc1Cl', 'B (B=1-10 uM)'),
  ('COc1ncc(-c2cnc(NC(C)(C)c3ncccc3Cl)nc2)cc1C(N)=O', 'B (B=1-10 uM)'),
  ('CC(C)(C)OC(=O)NCc1cnc(-c2cnc(NCC3(c4ncccc4Cl)CCC3)nc2)s1', 'A (A=<1 uM)'),
  ('Cc1cc(NC(=O)c2cnc(NCC3(c4ncccc4F)CCC3)nc2)[nH]n1', 'D (D=>20 uM)');

Give Mean AC1.4 for the following compound: CCOC(=O)c1cnn(-c2cnc(NCC3(c4ncccc4F)CCC3)nc2)c1
D (D=>20 uM)

Give Mean AC1.4 for the following compound: NC(=O)c1ccc(F)c(-c2cnc(NCC3(c4ncccc4Cl)CCC3)nc2)c1
A (A=<1 uM)

---

Test system: rabbit skeletal myofibrils (approximately 90% fast fibers)
assay: Activation of fast skeletal myofibrils (PUMA coupled-enzyme ATPase assay at pCa25)
Assay type: biochemical
settings: concentration at which the compound increased the enzymatic activity by 40%; calcium at pCa25; PM12 buffer pH 6.8
observable: Mean AC1.4

Look over these answered cases.
INSERT INTO assay_data (molecule, result) VALUES
  ('COc1ccc(-c2cnc(NC[C@]3(c4ncccc4F)C[C@H](F)C3)nc2)cn1', 'D (D=>20 uM)'),
  ('CC(C)(Nc1ncc(-c2ncc(CNC(=O)[C@@H]3CCCN3)s2)cn1)c1ncccc1F', 'C (C=10-20 uM)'),
  ('NC(=O)c1n[nH]c2cc(F)c(-c3cnc(NC4(c5ncccc5F)CCC4)nc3)cc12', 'A (A=<1 uM)'),
  ('NCc1cnc(-c2cnc(NCC3(c4ncccc4F)CCC3)nc2)s1', 'C (C=10-20 uM)'),
  ('Cc1nc(NC[C@]2(c3ncccc3F)C[C@H](F)C2)ncc1-c1cccc(C(N)=O)c1', 'B (B=1-10 uM)'),
  ('CC(=O)N1CC(NC(=O)c2cccc(-c3cnc(NC[C@]4(c5ncccc5F)C[C@H](F)C4)nc3)c2)C1', 'B (B=1-10 uM)'),
  ('NC(=O)c1cc(-c2cnc(NC3(c4ncccc4F)CCC3)nc2)ccn1', 'B (B=1-10 uM)'),
  ('C[S+]([O-])c1ccc(C(C)(C)Nc2ncc(-c3cccc(C(N)=O)c3)cn2)cc1 (centres unmarked)', 'D (D=>20 uM)'),
  ('CC(C)(Nc1ncc(-c2cccc(C(N)=O)c2)cn1)c1ncccc1S(C)(=O)=O', 'D (D=>20 uM)'),
  ('Fc1cccnc1C1(Nc2ncc(Br)cn2)CCC1', 'D (D=>20 uM)');

Enter recorded Mean AC1.4 with rabbit skeletal myofibrils (approximately 90% fast fibers) for NC(=O)c1ccc(F)c(-c2cnc(NC3(c4ncccc4F)CCC3)nc2)c1 here.
A (A=<1 uM)

Enter recorded Mean AC1.4 with rabbit skeletal myofibrils (approximately 90% fast fibers) for CN(C)c1nc(NC[C@]2(c3ncccc3F)C[C@H](F)C2)ncc1-c1ccccc1 here.
D (D=>20 uM)

Enter recorded Mean AC1.4 with rabbit skeletal myofibrils (approximately 90% fast fibers) for CC(C)(Nc1ncc(-c2nc(C(=O)O)cs2)cn1)c1ncccc1Cl here.
D (D=>20 uM)

Enter recorded Mean AC1.4 with rabbit skeletal myofibrils (approximately 90% fast fibers) for CC(C)(Nc1ncc(-c2ncc(C(=O)O)o2)cn1)c1ncccc1Cl here.
D (D=>20 uM)

Enter recorded Mean AC1.4 with rabbit skeletal myofibrils (approximately 90% fast fibers) for CC(C)(CNc1ncc(-c2cccc(C(N)=O)c2)cn1)c1ncccc1F here.
B (B=1-10 uM)

Enter recorded Mean AC1.4 with rabbit skeletal myofibrils (approximately 90% fast fibers) for COc1nc(NC[C@]2(c3ncccc3F)C[C@H](F)C2)ncc1-c1ccccc1 here.
B (B=1-10 uM)

Enter recorded Mean AC1.4 with rabbit skeletal myofibrils (approximately 90% fast fibers) for CNC(=O)c1ccnc(-c2cnc(NC[C@]3(c4ncccc4F)C[C@H](F)C3)nc2)n1 here.
B (B=1-10 uM)

Enter recorded Mean AC1.4 with rabbit skeletal myofibrils (approximately 90% fast fibers) for CNC(=O)c1cccc(-c2cnc(NCC3(c4ncccc4F)CCC3)nc2)c1 here.
B (B=1-10 uM)

Enter recorded Mean AC1.4 with rabbit skeletal myofibrils (approximately 90% fast fibers) for CC(C)[C@@H](Nc1ncc(-c2ncc(C(N)=O)s2)cn1)c1ncccc1Cl here.
D (D=>20 uM)

Enter recorded Mean AC1.4 with rabbit skeletal myofibrils (approximately 90% fast fibers) for CC(C)(O)c1cnn(-c2cnc(NC(C)(C)c3ncccc3Cl)nc2)c1 here.
D (D=>20 uM)

---

Test system: rabbit skeletal myofibrils (approximately 90% fast fibers)
assay: Activation of fast skeletal myofibrils (PUMA coupled-enzyme ATPase assay at pCa25)
Format: biochemical
settings: concentration at which the compound increased the enzymatic activity by 40%; calcium at pCa25; PM12 buffer pH 6.8
Source text: Preparation of fast skeletal myofibrils. […] Activation of Fast Skeletal Myofibrils. […] This assay regenerates myosin-produced ADP into ATP by oxidizing NADH, producing an absorbance change at 340 nm. […]
observable: Mean AC1.4

INSERT INTO results (smiles_structure, observable, result) VALUES
  ('CC(=O)NCCNC(=O)c1cnc(NCC2(c3ncccc3F)CCC2)nc1', 'Mean AC1.4', 'D (D=>20 uM)'),
  ('O=C(O)c1nc2cnc(NCC3(c4ncccc4F)CCC3)nc2s1', 'Mean AC1.4', 'D (D=>20 uM)'),
  ('CC(C)(CNc1ncc(-c2cncc(C#N)c2)cn1)c1ccc(F)cc1', 'Mean AC1.4', 'B (B=1-10 uM)'),
  ('CNC(=O)c1cnc(NCC2(c3ncccc3F)CCC2)nc1', 'Mean AC1.4', 'D (D=>20 uM)');

Give Mean AC1.4 for the following compound: CC(C)(Nc1ncc(-n2cc(CNC(=O)CN)cn2)cn1)c1ncccc1Cl
B (B=1-10 uM)

---

Tested on: rabbit skeletal myofibrils (approximately 90% fast fibers)
assay: Activation of fast skeletal myofibrils (PUMA coupled-enzyme ATPase assay at pCa25)
Type: biochemical
settings: concentration at which the compound increased the enzymatic activity by 40%; calcium at pCa25; PM12 buffer pH 6.8
observable: Mean AC1.4

INSERT INTO measurements (smiles_structure, result) VALUES
  ('CC(=O)NCc1cnc(-c2cnc(NC(C)(C)c3ncccc3F)nc2)s1', 'D (D=>20 uM)'),
  ('O=C(O)c1cnn(-c2cnc(NCC3(c4ncccc4F)CCC3)nc2)c1', 'D (D=>20 uM)'),
  ('Oc1ccc(-c2cnc(NC[C@]3(c4ncccc4F)C[C@H](F)C3)nc2)cn1', 'D (D=>20 uM)'),
  ('CC(C)(Nc1ncc(-c2cc(C(N)=O)ccc2F)cn1)c1cccnc1Cl', 'B (B=1-10 uM)'),
  ('CC(=O)NCc1ccc(-c2cnc(NC(C)(C)c3ncccc3F)nc2)cc1', 'D (D=>20 uM)');

Give Mean AC1.4 for the following compound: CNC(=O)c1ccc(O)c(-c2cnc(NC[C@]3(c4ncccc4F)C[C@H](F)C3)nc2)c1
A (A=<1 uM)

Give Mean AC1.4 for the following compound: N#Cc1cnc(NC2(c3ccc(F)cc3)CCC2)nc1
C (C=10-20 uM)

Give Mean AC1.4 for the following compound: CNC(=O)c1ccc(F)c(-c2cnc(NCC3(c4ncccc4F)CCC3)nc2)c1
B (B=1-10 uM)

Give Mean AC1.4 for the following compound: Oc1ccc(-c2cnc(NC[C@]3(c4ncccc4F)C[C@H](F)C3)nc2)nc1
B (B=1-10 uM)

Give Mean AC1.4 for the following compound: CS(=O)(=O)NCCNC(=O)c1cnc(NCC2(c3ncccc3F)CCC2)nc1
D (D=>20 uM)

Give Mean AC1.4 for the following compound: CC(=O)Nc1n[nH]c2ccc(-c3cnc(NC(C)(C)c4ncccc4Cl)nc3)cc12
B (B=1-10 uM)

Give Mean AC1.4 for the following compound: CC(C)(Nc1ncc(-c2ncno2)cn1)c1ncccc1Cl
D (D=>20 uM)
